- Test system: U-2 OS cells
- ASSAY_PROTOCOL: S/G2-phase cell cycle shift from median Hoechst 33342 intensity (trapping-like phenotype)
- Format: cell-based, human
- TEST_PARAMETERS: median Hoechst intensity change, 24 h PARPi gradient, PARP1/2 biosensor U-2 OS cells; read-out: S/G2 shift EC50
Please go through the items and note down their EC50.
Provide a numeric answer, followed by its unit.

Given C[C@]1(c2nc3c(C(N)=O)cccc3[nH]2)CCCN1 , respond with its EC50. 0.528 µM

Given O=c1[nH]nc2c3c(cccc13)N=C(CN1Cc3ccccc3C1)N2 , respond with its EC50. 3.97 µM

Given CN(C)CC(=O)Nc1ccc2[nH]c(=O)c3ccccc3c2c1 , respond with its EC50. 3.75 µM
